- assay: Liver microsomes stability, rat
- protocol_conditions: rat, microsomes
measured_parameter: half-life at 2 μM (min)
Express your answer in min, writing the number without its unit.

Some compounds with recorded half-life at 2 μM:
Which half-life at 2 μM is reported for this compound? [2H]C([2H])([2H])N(C([2H])([2H])[2H])C([2H])([2H])C([2H])([2H])c1c[nH]c2ccccc12
17.6

Which half-life at 2 μM is reported for this compound? [2H]c1[nH]c2c([2H])c([2H])c([2H])c([2H])c2c1CCN(C)C
24

Pending compound:
Which half-life at 2 μM is reported for this compound? [2H]C([2H])([2H])Oc1ccc2[nH]cc(C([2H])([2H])C([2H])([2H])N(C([2H])([2H])[2H])C([2H])([2H])[2H])c2c1
9.88

----------
Quick note: these are IC50 numbers for system: UniProt:P28223
Sequence (P28223 whole entry): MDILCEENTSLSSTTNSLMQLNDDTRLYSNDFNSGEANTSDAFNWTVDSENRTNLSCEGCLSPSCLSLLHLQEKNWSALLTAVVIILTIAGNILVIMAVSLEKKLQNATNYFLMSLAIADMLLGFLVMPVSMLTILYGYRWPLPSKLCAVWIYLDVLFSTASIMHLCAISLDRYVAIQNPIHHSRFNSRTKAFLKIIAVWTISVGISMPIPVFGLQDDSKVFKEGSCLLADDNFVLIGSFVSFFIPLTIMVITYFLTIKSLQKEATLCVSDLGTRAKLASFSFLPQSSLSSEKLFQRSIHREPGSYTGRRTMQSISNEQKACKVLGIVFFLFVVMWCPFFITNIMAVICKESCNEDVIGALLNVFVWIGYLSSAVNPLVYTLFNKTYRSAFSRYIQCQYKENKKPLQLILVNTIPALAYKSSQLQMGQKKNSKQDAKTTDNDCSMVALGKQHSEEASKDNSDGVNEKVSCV

State its IC50 on UniProt:P28223: CN(C)CCc1c[nH]c2ccccc12 [DMT, N,N-dimethyltryptamine, reference compound]
< 500 nM

State its IC50 on UniProt:P28223: [2H]c1[nH]c2c([2H])c([2H])c([2H])c([2H])c2c1CCN(C)C
< 500 nM

Pending compound:
State its IC50 on UniProt:P28223: [2H]C([2H])([2H])N(C([2H])([2H])[2H])C([2H])([2H])C([2H])([2H])c1c[nH]c2ccccc12
< 500 nM

----------
# microsomal CLint at 2 μM listing for each entry below
- assay: Liver microsomes stability, human
- protocol_conditions: human, microsomes
Express your answer in µL/min/mg, writing the number without its unit.

Some compounds with recorded microsomal CLint at 2 μM:
Which microsomal CLint at 2 μM is reported for this compound? [2H]c1[nH]c2c([2H])c([2H])c([2H])c([2H])c2c1CCN(C)C
18.8

Which microsomal CLint at 2 μM is reported for this compound? [2H]C([2H])([2H])Oc1ccc2[nH]cc(C([2H])([2H])C([2H])([2H])N(C([2H])([2H])[2H])C([2H])([2H])[2H])c2c1
16.4

Pending compound:
Which microsomal CLint at 2 μM is reported for this compound? [2H]C([2H])([2H])N(C([2H])([2H])[2H])C([2H])([2H])C([2H])([2H])c1c[nH]c2ccccc12
19

----------
- assay: Liver microsomes stability, mouse
- protocol_conditions: male, mouse, microsomes
measured_parameter: half-life at 2 μM
Returns: string containing the number followed by the unit.

Some molecules with recorded half-life at 2 μM:
Which half-life at 2 μM is reported for this molecule? [2H]C([2H])([2H])N(C([2H])([2H])[2H])C([2H])([2H])C([2H])([2H])c1c[nH]c2ccccc12
1.45 h

Which half-life at 2 μM is reported for this molecule? [2H]C([2H])([2H])Oc1ccc2[nH]cc(C([2H])([2H])C([2H])([2H])N(C([2H])([2H])[2H])C([2H])([2H])[2H])c2c1
1.63 h

Pending molecule:
Which half-life at 2 μM is reported for this molecule? [2H]c1[nH]c2c([2H])c([2H])c([2H])c([2H])c2c1CCN(C)C
0.29 h

----------
# microsomal CLint at 2 μM listing for each entry below
- assay: Liver microsomes stability, mouse
- protocol_conditions: male, mouse, microsomes
Express your answer in µL/min/mg, writing the number without its unit.

Some compounds with recorded microsomal CLint at 2 μM:
Which microsomal CLint at 2 μM is reported for this compound? [2H]c1[nH]c2c([2H])c([2H])c([2H])c([2H])c2c1CCN(C)C [I-A-2]
41.2

Which microsomal CLint at 2 μM is reported for this compound? [2H]C([2H])([2H])Oc1ccc2[nH]cc(C([2H])([2H])C([2H])([2H])N(C([2H])([2H])[2H])C([2H])([2H])[2H])c2c1 [I-A-6]
36.8

Next:
Which microsomal CLint at 2 μM is reported for this compound? [2H]C([2H])([2H])N(C([2H])([2H])[2H])C([2H])([2H])C([2H])([2H])c1c[nH]c2ccccc12 [I-A-1]
39.2
